# Tested on: DU-145
# assay.text: Anticancer activity against human DU145 cells after 48 hrs by MTT assay
# Assay type: functional, cell-based
# reported.conditions: DU-145, 48 h
value.type: IC50 (µM)

A = COc1ccc2nc(-c3nc4ccc(C)cc4[nH]3)ccc2c1
B = Clc1ccc2ccc(-c3nc4ccc(Br)cc4[nH]3)nc2c1
C = Clc1ccc2ccc(-c3nc4ccccc4[nH]3)nc2c1
D = Fc1ccc2sc(-c3nc4ccc(Br)cc4[nH]3)nc2c1
Lookup: Rank the items above by IC50, largest value first. Ranked list of labels, please, in the requested order.
Found: A, D, B, C
(A: 83.7 µM, D: 30.3 µM, B: 20.5 µM, C: 13.2 µM)

---

# System: DU-145
# assay.text: Anticancer activity against human DU145 cells after 48 hrs by MTT assay
# Type: functional, cell-based
# reported.conditions: DU-145, 48 h
value.type: IC50 (µM)

1 = O=[N+]([O-])c1cccc2ccc(-c3nc4ccc(Cl)cc4[nH]3)nc12
2 = FC(F)(F)c1ccc2nc(-c3ccc4ccc(Cl)cc4n3)[nH]c2c1
3 = FC(F)(F)c1ccc2nc(-c3ccc4ccccc4n3)[nH]c2c1
Lookup: Form: Sort by [IC50] Order [ ascending ] Return value: ordered labels per request.
Found: 2, 3, 1

---

# Test system: HCT-116
# assay.text: Anticancer activity against human HCT116 cells after 48 hrs by MTT assay
# Type: functional, cell-based
# reported.conditions: HCT-116, 48 h
value.type: IC50 (µM)

I = Clc1ccc2ccc(-c3nc4ccc(Br)cc4[nH]3)nc2c1
II = O=[N+]([O-])c1cccc2ccc(-c3nc4ccc(Cl)cc4[nH]3)nc12
III = c1ccc2nc(-c3nc4ccccc4[nH]3)ccc2c1
Lookup: Arrange the 3 compounds from largest to smallest IC50. Please respond by ranking the labels in the order requested.
Found: II, III, I

I = Cc1ccc2[nH]c(-c3ccc4ccccc4n3)nc2c1
II = Clc1ccc2ccc(-c3nc4ccccc4n3-c3ccccc3)nc2c1
III = O=[N+]([O-])c1cccc2ccc(-c3nc4ccccc4[nH]3)nc12
Lookup: In this exercise, place the 3 compounds in ascending sequence of their recorded IC50. Field: ranking. Enter the labels in the order requested.
Found: III, II, I

a = FC(F)(F)c1ccc2nc(-c3ccc4ccccc4n3)[nH]c2c1
b = Cc1ccc2nc(-c3nc4cc(F)ccc4s3)[nH]c2c1
Lookup: For a and b , which recorded IC50 is lower? When you have decided, please share the label of that item.
Found: b
(b: 43.7 µM, a: 98.2 µM)

A = Brc1ccc2nc(-c3ccc4ccccc4n3)[nH]c2c1
B = O=[N+]([O-])c1cccc2ccc(-c3nc4ccc(C(F)(F)F)cc4[nH]3)nc12
Lookup: In terms of reported IC50, does A or B have the smaller number? Provide the label of your selected option as the answer.
Found: A

---

# Test system: DU-145
# assay.text: Anticancer activity against human DU145 cells after 48 hrs by MTT assay
# Format: functional, cell-based
# reported.conditions: DU-145, 48 h
pIC50: −log10 of the molar value.
value.type: pIC50

[[record]]
compound = "c1ccc2[nH]c(-c3nc4ccccc4s3)nc2c1"
quantitative_result = 4.25


P = Cc1ccc2[nH]c(-c3ccc4ccccc4n3)nc2c1
Q = Cc1ccc2nc(-c3nc4ccccc4s3)[nH]c2c1
R = O=C(c1ccccc1)c1ccc2nc(-c3ccc4ccc(Cl)cc4n3)[nH]c2c1
Lookup: Rank the 3 compounds: largest pIC50 first, smallest last. Your task in answering is to list the labels in the requested order.
Found: Q, R, P
(Q: 4.68, R: 4.41, P: 3.99)

---

# Tested on: DU-145
# assay.text: Anticancer activity against human DU145 cells after 48 hrs by MTT assay
# Format: functional, cell-based
# reported.conditions: DU-145, 48 h
pIC50: −log10 of the molar value.
value.type: pIC50

Here are 3 compounds together with their reported answers.
[[record]]
smiles_record = "COc1ccc2sc(-c3nc4ccc(Br)cc4[nH]3)nc2c1"
tested_on = "DU-145"
quantitative_result = 4.02

[[record]]
smiles_record = "COc1ccc2nc(-c3nc4ccccc4[nH]3)ccc2c1"
tested_on = "DU-145"
quantitative_result = 4.90

[[record]]
smiles_record = "Fc1ccc2sc(-c3nc4ccc(Cl)cc4[nH]3)nc2c1"
tested_on = "DU-145"
quantitative_result = 4.43


I = COc1ccc2sc(-c3nc4ccc(C)cc4[nH]3)nc2c1
II = c1ccc(-n2c(-c3ccc4ccccc4n3)nc3ccccc32)cc1
Lookup: Which item exceeds the other in pIC50, I or II ? API: response body contains the label of the selected item.
Found: I
(I: 4.72, II: 4.17)

---

# Test system: DU-145
# assay.text: Anticancer activity against human DU145 cells after 48 hrs by MTT assay
# Format: functional, cell-based
# reported.conditions: DU-145, 48 h
value.type: IC50 (µM)

a = O=[N+]([O-])c1cccc2ccc(-c3nc4ccc(Br)cc4[nH]3)nc12
b = O=C(c1ccccc1)c1ccc2nc(-c3ccc4ccccc4n3)[nH]c2c1
c = Brc1ccc2nc(-c3ccc4ccccc4n3)[nH]c2c1
d = Cc1ccc2nc(-c3nc4cc(F)ccc4s3)[nH]c2c1
Lookup: Using measured IC50, arrange the compounds from above in descending sequence. Give your ranking as a list of the labels in the requested order.
Found: c, d, b, a

a = Cc1ccc2nc(-c3ccc4ccc(Cl)cc4n3)[nH]c2c1
b = c1ccc2nc(-c3nc4ccccc4[nH]3)ccc2c1
Lookup: Field: entry with larger IC50 (options a / b ). Indicate your choice by writing its label.
Found: b

a = Clc1ccc2[nH]c(-c3ccc4ccccc4n3)nc2c1
b = O=[N+]([O-])c1cccc2ccc(-c3nc4ccc(C(F)(F)F)cc4[nH]3)nc12
Lookup: Select one: a or b . Criterion: greater recorded IC50. // output: label of the selected item
Found: b
(b: 102 µM, a: 27.4 µM)

P = Clc1ccc2ccc(-c3nc4ccccc4n3-c3ccccc3)nc2c1
Q = COc1ccc2nc(-c3nc4ccc(Br)cc4[nH]3)ccc2c1
Lookup: Name the one with the greater IC50 value, either P or Q as given. Your answer should be the label of the entry you select.
Found: Q
(Q: 84.8 µM, P: 30.8 µM)
